Test system: A498
Assay: NCI tumour cell line growth inhibition, 48 h
Active and inactive are the calls of the source. Cut-off read from the data, not from the text of the source: active = GI50 up to about 1.1 µM and inactive = higher.
property: GI50

Study these solved cases before continuing.
C[C@H](CCC(=O)O)[C@H]1CC[C@H]2[C@@H]3C(=O)C[C@@H]4C[C@H](O)CC[C@]4(C)[C@H]3C[C@H](O)[C@]12C    > 100 µM (inactive)
C=CCCC1(C)CCCNC1=S (centres undefined)    > 100 µM (inactive)
C=C1CC(COc2cc(=O)oc3ccccc23)(c2ccccc2)OC1=O (centres undefined)    2.38 µM (inactive)
COc1cc(C)c(C2NC(=O)c3ccccc3N2)cc1C (centres undefined)    0.312 µM (active)

Prompt: Missing value: GI50, A498, entry CCOC(=O)NC(=O)c1cn(CCN2CCN(C(=O)NCCCCCCNC(=O)N3CCN(CCn4cc(C(=O)NC(=O)OCC)c(=O)n(CCN(CC)CC)c4=O)CC3)CC2)c(=O)n(CCC(CC)CC)c1=O . Fill in?
Completion: > 100 µM (inactive)

Prompt: Missing value: GI50, A498, entry CC1CC[C@@]2(OC1)OC1CC3C4CCC5C[C@@H](OC6OC(CO)C(OC7OC(CO)C(O)C(OC8OC(CO)C(O)C(OC9OC(CO)C(O)C(O)C9O)C8O)C7OC7OC(CO)C(O)C(O)C7O)C(O)C6O)[C@H](O)C[C@]5(C)C4CC[C@]3(C)C1[C@@H]2C (some centres undefined) . Fill in?
Completion: > 80.5 µM (inactive)

Prompt: Missing value: GI50, A498, entry CCOC(=O)C1C(=O)CC(C)(O)C(C(=O)OCC)C1c1ccc(O)c(OC)c1 (centres undefined) . Fill in?
Completion: > 100 µM (inactive)

Prompt: Missing value: GI50, A498, entry Cc1ccc(NC(Nc2ccc(C)cc2C)=C(/C=C(\Cl)[N+](=O)[O-])[N+](=O)[O-])c(C)c1 . Fill in?
Completion: 18.2 µM (inactive)

Prompt: Missing value: GI50, A498, entry CN(C)c1snc2c1c(=O)n(C)c(=O)n2C . Fill in?
Completion: > 100 µM (inactive)

Prompt: Missing value: GI50, A498, entry CCOc1ccccc1NC(=O)C1=C(C)NC(C)=C(C(=O)Nc2ccccc2OCC)C1c1ccc([N+](=O)[O-])cc1 . Fill in?
Completion: 78.9 µM (inactive)

Prompt: Missing value: GI50, A498, entry Cc1cccc2c1C(=O)/C(=C/c1ccccc1C(=O)O)C2 . Fill in?
Completion: > 100 µM (inactive)

Prompt: Missing value: GI50, A498, entry Nc1nc(=O)n(C2OC(CO)C(O)C2O)cc1F (centres undefined) . Fill in?
Completion: > 100 µM (inactive)

Prompt: Missing value: GI50, A498, entry Cc1nc2c(nc1C)C(=O)c1ccccc1C2=O . Fill in?
Completion: 3.74 µM (inactive)

Prompt: Missing value: GI50, A498, entry O=C(O)c1ccccc1CC(Cc1ccccc1)C(=O)O (centres undefined) . Fill in?
Completion: > 100 µM (inactive)
